tested on: HT-29; assay: Antiproliferative activity against human HT-29 cells after 96 hrs by SRB assay; format: functional, cell-based; settings: HT-29, 96 h
reported_metric: IC50

QUERY: What measured IC50 goes with C/C(=C\CC/C(C)=C/CC[C@@H]1[C@@]2(C)CCC(=O)C(C)(C)[C@@H]2CC[C@@]1(C)O)CC/C=C(\C)C(=O)OCCBr ?
RESULT: > 30 µM

QUERY: Endpoint output: IC50 of C=C(C)[C@@H]1CC[C@]2(C(=O)OCCCCOC(=O)/C(C)=C/CC/C(C)=C/CC/C(C)=C/CC[C@@H]3[C@@]4(C)CCC(=O)C(C)(C)[C@@H]4CC[C@@]3(C)O)CC[C@]3(C)[C@H](CC[C@@H]4[C@@]5(C)CC[C@H](O)C(C)(C)[C@@H]5CC[C@]43C)[C@@H]12 . Value?
RESULT: > 30 µM

QUERY: For the molecule C=C(C)[C@@H]1CC[C@]2(C)CC[C@]3(C)[C@H](CC[C@@H]4[C@@]5(C)CC[C@@H](O)[C@](C)(C(=O)OCCCCBr)[C@@H]5CC[C@]43C)[C@@H]12 , what IC50 is on record?
RESULT: > 30 µM

QUERY: # query: IC50 of entry C/C(=C\CC/C(C)=C/CC[C@@H]1[C@@]2(C)CCC(=O)C(C)(C)[C@@H]2CC[C@@]1(C)O)CC/C=C(\C)C(=O)OCCCOC(=O)[C@@]1(C)[C@H](O)CC[C@@]2(C)[C@H]1CC[C@]1(C)[C@@H]2C(=O)C=C2[C@@H]3[C@@H](C)[C@H](C)CC[C@]3(C)CC[C@]21C
RESULT: > 30 µM
